EXPERIMENTAL PROTOCOL: in vitro
MEASUREMENT CONTEXT: both, human, microsomes
Procedure: The objective of this study was to determine the stability of curcumin in human liver microsomes in the absence and presence of xanthohumol at a concentration of 1 μM. Mixed-gender human liver microsomes (Lot #1210347) were purchased from XenoTech. The reaction mixture, minus cofactors, was prepared as described below. […] Half-lives were calculated using GraphPad software, fitting to a single-phase exponential decay equation.
PARAMETER MEASURED: microsomal CLint at 1 μM (µL/min/mg)
Lab book: enter the figure in µL/min/mg, no units written.

Challenge: # lookup: microsomal CLint at 1 μM of COc1cc(C=CC(=O)CC(=O)C=Cc2ccc(O)c(OC)c2)ccc1O [Curcumin]
Response given: 313

----------
EXPERIMENTAL PROTOCOL: in vitro
MEASUREMENT CONTEXT: both, human, microsomes, Half-life (value in parentheses)
PARAMETER MEASURED: half-life at 1 μM (min)
Quick reminder: number only, in min, skip the unit.

Challenge: Which half-life at 1 μM value is on record for `COc1cc(C=CC(=O)CC(=O)C=Cc2ccc(O)c(OC)c2)ccc1O` ?
Response given: 4.7

----------
EXPERIMENTAL PROTOCOL: in vitro
MEASUREMENT CONTEXT: both, human, microsomes, Half-life
PARAMETER MEASURED: half-life

Challenge: Reported half-life, molecule O=c1ccc2ccc(O)cc2o1 [7-HC, 7-hydroxycoumarin] : ____
Response given: 12 min

----------
EXPERIMENTAL PROTOCOL: in vitro
MEASUREMENT CONTEXT: both, human, microsomes, CLint
PARAMETER MEASURED: microsomal CLint at 1 μM

Challenge: I have this molecule here, `COc1cc(C=CC(=O)CC(=O)C=Cc2ccc(O)c(OC)c2)ccc1O` , and I need its recorded microsomal CLint at 1 μM.
Response given: > 139 µL/min/mg

----------
EXPERIMENTAL PROTOCOL: in vitro
MEASUREMENT CONTEXT: both, human, microsomes
PARAMETER MEASURED: microsomal CLint (µL/min/mg)
I only need the number, in µL/min/mg, no unit after it.

Challenge: Fill in the blank: the reported microsomal CLint of O=c1ccc2ccc(O)cc2o1 [7-HC, 7-hydroxycoumarin] is ____.
Response given: 136

----------
EXPERIMENTAL PROTOCOL: in vitro
MEASUREMENT CONTEXT: both, human, microsomes, CLint
PARAMETER MEASURED: microsomal CLint (µL/min/mg)
# output: bare number, implied unit µL/min/mg

Challenge: Name the recorded microsomal CLint for O=c1ccc2ccc(O)cc2o1 [7-HC, 7-hydroxycoumarin] .
Response given: 120

----------
EXPERIMENTAL PROTOCOL: Stability of curcumin in human liver microsomes in the absence and presence of 10 μM xanthohumol (Example 4)
MEASUREMENT CONTEXT: both, human, microsomes
PARAMETER MEASURED: microsomal CLint

Challenge: What microsomal CLint value was documented for this compound, C[C@]12CC[C@H]3[C@@H](CCC4=CC(=O)CC[C@@]43C)[C@@H]1CC[C@@H]2O [Testosterone, testosterone] ?
Response given: 57.7 µL/min/mg

----------
EXPERIMENTAL PROTOCOL: in vitro
MEASUREMENT CONTEXT: both, human, microsomes
PARAMETER MEASURED: half-life at 1 μM (min)
Answer in min, number only, no unit symbol.

Challenge: Any idea what its half-life at 1 μM is? The compound is COc1cc(C=CC(=O)CC(=O)C=Cc2ccc(O)c(OC)c2)ccc1O [Curcumin]
Response given: 4.4

----------
EXPERIMENTAL PROTOCOL: Stability of curcumin in human liver microsomes in the absence and presence of 1 μM xanthohumol (Example 3)
MEASUREMENT CONTEXT: both
PARAMETER MEASURED: microsomal CLint (µL/min/mg)
The reply should contain only the number, in µL/min/mg.

Challenge: Bench note: what microsomal CLint did `C[C@]12CC[C@H]3[C@@H](CCC4=CC(=O)CC[C@@]43C)[C@@H]1CC[C@@H]2O` show?
Response given: 74

Source of measurements: patent US20170333515A1
